So I've got a bunch of compounds here, and I need their Relative Potency, LTB4 Receptor Binding values.
target: LTB4 Receptor (Homo sapiens, UniProt Q15722); construct: Neutrophils were purified from venous blood of normal human donors; endogenous in cells; host or cells: human peripheral blood neutrophils (purity >95%); assay: LTB4 Receptor Binding Assay ((3H) LTB4, neutrophils); details: potency relative to the compound of Example 1(b), defined as 1.0, 0.6×10^-9 M (3H) LTB4, 0° C., 45 minutes
Sequence (Q15722 whole entry): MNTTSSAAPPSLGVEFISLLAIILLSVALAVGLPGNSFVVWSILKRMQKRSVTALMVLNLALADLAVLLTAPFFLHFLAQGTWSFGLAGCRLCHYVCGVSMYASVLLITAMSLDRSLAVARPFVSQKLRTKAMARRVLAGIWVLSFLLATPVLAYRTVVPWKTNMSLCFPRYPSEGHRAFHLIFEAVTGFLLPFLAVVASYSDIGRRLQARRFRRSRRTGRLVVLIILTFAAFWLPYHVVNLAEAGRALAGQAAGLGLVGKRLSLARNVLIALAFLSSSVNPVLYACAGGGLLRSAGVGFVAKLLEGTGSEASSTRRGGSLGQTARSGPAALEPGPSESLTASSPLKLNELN
Give bare numbers.

[Q] Look up Relative Potency, LTB4 Receptor Binding for this compound: CCCc1c(OCCCOc2ccc(-c3c[nH]cn3)c(OC)c2CCC)ccc2c1OC(C(=O)O)CC2 (stereo not drawn)
[A] 1.0

Give one value of Relative Potency, LTB4 Receptor Binding per listed compound.
1. CCCc1c(OCCCOc2ccc(-c3cscn3)c(OC)c2CCC)ccc2c1OC(C(=O)O)CC2 (stereo not drawn)
2. C=CCc1c(OCCCOc2ccc3c(c2CCC)OC(C(=O)O)CC3)ccc(-c2cscn2)c1OC (stereo not drawn)

[A]
1: 4.5; 2: 11.6

The measurements presented in this section are drawn from patent US5073562A.
